# tested target: Cytochrome P450 3A4 (Homo sapiens) (UniProt P08684)
# Sequence (P08684 whole entry, looked up): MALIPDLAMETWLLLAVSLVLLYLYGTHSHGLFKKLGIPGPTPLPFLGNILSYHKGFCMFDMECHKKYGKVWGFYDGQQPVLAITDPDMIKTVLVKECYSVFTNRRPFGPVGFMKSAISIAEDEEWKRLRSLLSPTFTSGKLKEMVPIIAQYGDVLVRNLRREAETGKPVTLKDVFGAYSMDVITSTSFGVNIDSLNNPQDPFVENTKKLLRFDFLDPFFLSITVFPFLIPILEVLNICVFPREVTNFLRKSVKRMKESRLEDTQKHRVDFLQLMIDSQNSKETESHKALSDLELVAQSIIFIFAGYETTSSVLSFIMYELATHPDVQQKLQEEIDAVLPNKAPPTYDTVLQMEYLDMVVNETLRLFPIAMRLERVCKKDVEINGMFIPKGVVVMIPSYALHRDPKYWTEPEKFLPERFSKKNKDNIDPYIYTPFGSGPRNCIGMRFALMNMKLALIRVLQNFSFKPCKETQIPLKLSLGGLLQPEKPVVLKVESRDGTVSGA
# experimental protocol: qHTS Assay for Activators of Cytochrome P450 3A4 (AID 885); also: nearly all actives have a fitted effect of over 65% in size
# experimental context: recombinant CYP3A4, Luciferin-PPXE luminescence, 60 min; series mostly up to 57.1 µM
Calls of active or inactive are those of the source. Calls follow the shape of the dose curve; as a rule, active = well fitted activation curve with a large enough effect; inconclusive = small, poorly fitted or top-dose-only effect; inactive = no such curve, though single readings can be large or run the other way.
Classes used: true = active, false = inactive

>>> print(df.to_string())
                                    molecule                             tested_target  category
 0     CN(C)c1ccc(-c2nc(N(C)C)c3ccccc3n2)cc1  Cytochrome P450 3A4 (Homo sapiens) (UniProt P08684)     false
 1  N#Cc1cccc(NC(=O)N2CC[C@@]3(CCCN(C(=O)c4ccco4)C3)C2)c1  Cytochrome P450 3A4 (Homo sapiens) (UniProt P08684)     false
 2  Cc1c(CC(C)(C)C(=O)O)n(Cc2ccc(Cl)cc2)c2ccc(F)cc12  Cytochrome P450 3A4 (Homo sapiens) (UniProt P08684)     false
 3            Cc1cccc(CNc2ncncc2-c2cccnc2)c1  Cytochrome P450 3A4 (Homo sapiens) (UniProt P08684)     false
 4  CCCN1C[C@H](CSC)C[C@H]2c3cccc4[nH]cc(c34)C[C@@H]21  Cytochrome P450 3A4 (Homo sapiens) (UniProt P08684)     false
 5        CNc1nc(-c2ccc(N(C)C)cc2)nc2ccccc12  Cytochrome P450 3A4 (Homo sapiens) (UniProt P08684)     false
 6  O=c1c(-c2cc(F)cc(F)c2)nc2cnc(Oc3ccccc3)nc2n1C[C@H]1CCCO1  Cytochrome P450 3A4 (Homo sapiens) (UniProt P08684)     false
 7  N#CCCn1c(=O)c(-c2cccs2)nc2cnc(Nc3ccccc3)nc21  Cytochrome P450 3A4 (Homo sapiens) (UniProt P08684)     false
 8  O=C(Oc1ccccc1)N1CCC2(CCCN(c3ccc(-c4ccccc4)cc3)C2)CC1  Cytochrome P450 3A4 (Homo sapiens) (UniProt P08684)     false
 9  O=C(c1cc(C(F)(F)F)cc(C(F)(F)F)c1)N1CCC[C@@]2(CCN(c3ccccc3)C2)C1  Cytochrome P450 3A4 (Homo sapiens) (UniProt P08684)     false
10  CC(=O)OCC1=C(C(=O)O)N2C(=O)[C@@H](NC(=O)CSc3ccncc3)[C@@H]2SC1  Cytochrome P450 3A4 (Homo sapiens) (UniProt P08684)     false
11  CC(C)CN1CCCC2(CCN(C(=O)c3cccc(F)c3)CC2)C1  Cytochrome P450 3A4 (Homo sapiens) (UniProt P08684)     false
12  NC(Cc1c[nH]c2ccccc12)C(=O)O (centres undefined)  Cytochrome P450 3A4 (Homo sapiens) (UniProt P08684)     false
13          Cc1ccccc1-c1nc(NC2CC2)c2ccccc2n1  Cytochrome P450 3A4 (Homo sapiens) (UniProt P08684)     false
14     CN(C)C(=O)c1ccc(-c2cncnc2-n2ccnc2)cc1  Cytochrome P450 3A4 (Homo sapiens) (UniProt P08684)     false
15    CN(C)c1ncnc2ccc(-c3ccccc3C(F)(F)F)cc12  Cytochrome P450 3A4 (Homo sapiens) (UniProt P08684)     false
16          N#Cc1cccc(-c2cc(-n3ccnc3)ncn2)c1  Cytochrome P450 3A4 (Homo sapiens) (UniProt P08684)     false
17  COc1ccccc1CN1CCC2(CC1)CCN(C(=O)c1csnn1)CC2  Cytochrome P450 3A4 (Homo sapiens) (UniProt P08684)     false
18     CC(=O)NCCNc1ncnc2ccc(-c3ccccc3Cl)cc12  Cytochrome P450 3A4 (Homo sapiens) (UniProt P08684)     false
19  COc1ccc(-c2nc3cnc(N4CCNCC4)nc3n(CCC#N)c2=O)cc1  Cytochrome P450 3A4 (Homo sapiens) (UniProt P08684)     false
20   O=c1cnc2cnc(Nc3ccccc3)nc2n1C[C@H]1CCCO1  Cytochrome P450 3A4 (Homo sapiens) (UniProt P08684)     false
21       COc1cccc(-c2cc(NCc3ccccc3OC)ncn2)c1  Cytochrome P450 3A4 (Homo sapiens) (UniProt P08684)     false
22  COc1ccc(NC(=O)N2CC[C@@]3(CCCN(S(C)(=O)=O)C3)C2)cc1  Cytochrome P450 3A4 (Homo sapiens) (UniProt P08684)     false
23  COc1ccc(Oc2ncc3nc(CCc4ccccc4)c(=O)n(C)c3n2)cc1  Cytochrome P450 3A4 (Homo sapiens) (UniProt P08684)     false
24         Cc1cnc(CNc2cc(-c3ccccc3C)ncn2)cn1  Cytochrome P450 3A4 (Homo sapiens) (UniProt P08684)      true
25               CNc1ncncc1-c1ccccc1C(F)(F)F  Cytochrome P450 3A4 (Homo sapiens) (UniProt P08684)     false
26                Cc1noc(C)c1-c1cncnc1NC1CC1  Cytochrome P450 3A4 (Homo sapiens) (UniProt P08684)     false
27         CN(C)Cc1ccccc1-c1cncnc1NCc1cccnc1  Cytochrome P450 3A4 (Homo sapiens) (UniProt P08684)     false
28  CCNc1ncc2nc(-c3ccccc3)c(=O)n(CCc3ccccc3)c2n1  Cytochrome P450 3A4 (Homo sapiens) (UniProt P08684)     false
29  COC(=O)C1=C(C)NC(C)=C(C(=O)OCCSc2ccccc2)[C@@H]1C  Cytochrome P450 3A4 (Homo sapiens) (UniProt P08684)     false
30  COc1ccccc1CCn1c(=O)c(-c2cccc(Cl)c2)nc2cncnc21  Cytochrome P450 3A4 (Homo sapiens) (UniProt P08684)     false
31  O=c1c(-c2ccc(F)cc2)nc2cnc(Oc3cccc(Cl)c3)nc2n1C[C@H]1CCCO1  Cytochrome P450 3A4 (Homo sapiens) (UniProt P08684)     false
32             Cc1noc(C)c1-c1cncnc1Nc1ccccc1  Cytochrome P450 3A4 (Homo sapiens) (UniProt P08684)     false
33      c1cn(-c2ccnc(-c3ccc4c(c3)OCO4)n2)cn1  Cytochrome P450 3A4 (Homo sapiens) (UniProt P08684)     false

---

# System: NanoLuc luciferase (engineered Oplophorus gracilirostris luciferase)
# experimental protocol: Biochemical coelenterazine-based NLuc counterscreen for small molecule modulators of PMP22 gene expression - Km assay (AID 1508639)
# experimental context: secreted NLuc enzyme, coelenterazine luminescence, Km conditions; series mostly up to 57.5 µM
This is one part of the list. Results filed as inconclusive are left out. Activity calls are given as the source filed them. Calls come from the whole dose curve; as a rule, active = well fitted inhibition curve with a large enough effect; inconclusive = small, poorly fitted or top-dose-only effect; inactive = flat fitted curve, though single readings scatter.
Classes used: active, inactive

In [3]: df
Out[3]:
                                   molecule  category
0  Cc1nnc(SCC(=O)NCc2ccccc2Cl)c2nn(-c3ccccc3)c(C)c12  inactive
1  CCCn1c2ccccc2c2cnn(CC(=O)NCC3CCN(Cc4ccc(C)cc4)CC3)c(=O)c21  inactive
2  CCCCOc1ccc(CN2C(=O)C(=O)c3cc(Br)cc(C)c32)cc1OC  inactive
3  CCc1ccc(C2CC(=O)c3c([nH]c(C(=O)OCc4ccc(C)cc4)c3C)C2)cc1 (configuration not stated)  inactive
4  COc1ccc(-c2onc(C)c2C)cc1S(=O)(=O)NCC1CCN(Cc2cccc(F)c2)CC1  inactive
5  CCOC(=O)c1ccc(N2C(=O)c3n[nH]c(C)c3C2c2ccc(O)c(OC)c2)cc1 (configuration not stated)    active
6  O=C(c1ccc(C(F)(F)F)cc1)N1CCC(c2nc(-c3ccc(S(=O)(=O)N4CCCC4)cc3)no2)CC1  inactive

---

# tested target: Cytochrome P450 1A2 (Homo sapiens)
# experimental protocol: p450-cyp1a2 (AID 410)
# experimental context: recombinant CYP1A2, luciferin-ME demethylation, luminescence; series mostly up to 57 µM
Inconclusive results are not listed. The source made the active and inactive calls. The call rests on the fitted dose curve.
Classes used: y for active, n for inactive

                                 test_smiles                       tested_target  category
 0      COc1ccc(-c2nc3cnc(OC)nc3n(C)c2=O)cc1  Cytochrome P450 1A2 (Homo sapiens)         y
 1    COc1cccc(-c2nc(NC3CCNCC3)c3ccccc3n2)c1  Cytochrome P450 1A2 (Homo sapiens)         y
 2  CS(=O)(=O)N1CCC2(CC1)CN(c1ccc(-c3ccccc3)cc1)C2  Cytochrome P450 1A2 (Homo sapiens)         n
 3  COc1ccc2[nH]cc(CCNc3cc(-c4ccoc4)ncn3)c2c1  Cytochrome P450 1A2 (Homo sapiens)         y
 4              Cc1nc2cncnc2n(-c2ccccc2)c1=O  Cytochrome P450 1A2 (Homo sapiens)         y
 5  COc1ccc2[nH]cc(CCNc3cc(-c4ccc(C(=O)N(C)C)cc4)ncn3)c2c1  Cytochrome P450 1A2 (Homo sapiens)         y
 6    c1ccc(-c2cccc(N3CCC4(CCNCC4)CC3)c2)cc1  Cytochrome P450 1A2 (Homo sapiens)         y
 7  COc1ccccc1CCn1c(=O)c(-c2cn(C)c3ccccc23)nc2cncnc21  Cytochrome P450 1A2 (Homo sapiens)         y
 8  O=C(c1ccco1)N1CCC2(CC1)CCN(C(c1ccccc1)c1ccccc1)CC2  Cytochrome P450 1A2 (Homo sapiens)         n
 9          CN(C)Cc1ccccc1-c1cncnc1NCc1cccs1  Cytochrome P450 1A2 (Homo sapiens)         y
10  COCCn1c(=O)c(-c2ccc(Cl)cc2)nc2cnc(N3CCOCC3)nc21  Cytochrome P450 1A2 (Homo sapiens)         y
11    COCCNc1nc(-c2ccccc2C(F)(F)F)nc2ccccc12  Cytochrome P450 1A2 (Homo sapiens)         y

Each recorded value in this set is attributed to PubChem BioAssay (NCATS).
